measured property: melting point

Input: Requested read-out: melting point. Entry: `Cc1cc2ncnn2nc1OCC(C)(C)CCCS(N)(=O)=O`
Output: 171 to 172 °C

Input: Requested read-out: melting point. Entry: `O=C(Cc1ccc(-c2ccccc2)cc1)NCCc1ccc(OCc2ccccc2)c(OCc2ccccc2)c1`
Output: 142 to 144 °C

Input: Requested read-out: melting point. Entry: `Cc1ccc(S(=O)(=O)N2CCC[C@H](CBr)c3ccccc32)cc1`
Output: 110 to 111 °C

Input: Requested read-out: melting point. Entry: `CN1CCN(c2ncc3c(=O)c(C(=O)O)cn(C4CC4)c3n2)CC1`
Output: 209 to 210 °C

Input: Requested read-out: melting point. Entry: NNC(=O)C(Cl)c1cccc(Cl)n1 (stereo unspecified)
Output: 176 to 177 °C

Input: Requested read-out: melting point. Entry: O=S(=O)(CC(O)(CCl)c1ccccc1)c1ccccc1 (stereo unspecified)
Output: 110 °C

Input: Requested read-out: melting point. Entry: Cc1c(F)c(F)c(C(=O)NC2CCCCC2C)c(F)c1F (stereo unspecified)
Output: 202 to 204 °C

Input: Requested read-out: melting point. Entry: `CC(C)(C)OC(=O)N(Cc1csc2ccccc12)S(N)(=O)=O`
Output: 103 °C

Input: Requested read-out: melting point. Entry: `NC(N)=NC(=O)Cn1c(Cl)c(Cl)c(Cl)c1Cl`
Output: 215 to 217 °C

Input: Requested read-out: melting point. Entry: `CCOc1ccc(C2=NN(c3ccc(C(=O)N4CCN(c5ccc(C(F)(F)F)cn5)CC4)cc3)C(=O)[C@@H]3CC=CC[C@H]23)cc1OCC`
Output: 121 to 123 °C

Input: Requested read-out: melting point. Entry: CNC(=O)NC1CC(C)(C)Cc2cc(C)cc(C)c21 (stereo unspecified)
Output: 196 to 197 °C

Input: Requested read-out: melting point. Entry: CCOCc1nc2c(N)nc3ccccc3c2n1CC1CCN(Cc2ccccc2)O1 (stereo unspecified)
Output: 137 to 138 °C

Input: Requested read-out: melting point. Entry: `CC(C)(CCl)C(=O)N(Cc1ccccc1Cl)OC(=O)c1ccccc1`
Output: 117 to 120 °C

Input: Requested read-out: melting point. Entry: `Cc1ccc(NC(=O)CN2CCNCC2)cc1Nc1ncc(-c2cccnc2)o1`
Output: 176 to 178 °C

Input: Requested read-out: melting point. Entry: `Cn1cc(-c2cc3cccnc3[nH]2)c2cc(O)ccc21`
Output: 199 to 200 °C

Input: Requested read-out: melting point. Entry: O=C(O)CC(Br)C(Br)c1ccc(-c2ccccc2)cc1 (stereo unspecified)
Output: 200 to 203 °C

Input: Requested read-out: melting point. Entry: `O=C(/C=C/C=C(c1cccc(Cl)c1)c1cccc(Cl)c1)NCCCCc1cccnc1`
Output: 100 to 102 °C

Input: Requested read-out: melting point. Entry: `Cc1ccc(-c2ccc3c(c2)C=C(C(=O)Nc2ccc(C#N)cc2)CCO3)cc1`
Output: 187 to 189 °C

Input: Requested read-out: melting point. Entry: `COc1ccc(OC)c2c(C=O)c3ccccc3c(C=O)c12`
Output: 208 to 212 °C

Input: Requested read-out: melting point. Entry: `Oc1cc(C(O)(c2ccccc2)c2ccccc2)c2ccccc2n1`
Output: > 350 °C

Input: Requested read-out: melting point. Entry: CC(=O)NC1CC(N)(C(=O)O)C2C(C(=O)O)C12 (stereo unspecified)
Output: > 275 °C
